Observed Ki, system Serotonin N-acetyltransferase (Ovis aries) (UniProt Q29495).

- compound: "CC(C)(COP(=O)(O)OP(=O)(O)OC[C@H]1OC(n2cnc3c(N)ncnc32)[C@@H](O)[C@@H]1OP(=O)(O)O)[C@@H](O)C(=O)NCCC(=O)NCCSCCCCc1c[nH]c2ccccc12 (some centres undefined) [AANAT bisubstrate analog, 5]"
  assayed_system: "Serotonin N-acetyltransferase (Ovis aries) (UniProt Q29495)"
  Ki / nM: 310
- compound: "CC(C)(COP(=O)(O)OP(=O)(O)OC[C@H]1OC(n2cnc3c(N)ncnc32)[C@@H](O)[C@@H]1OP(=O)(O)O)[C@@H](O)C(=O)NCCC(=O)NCCSCCCCCc1c[nH]c2ccccc12 (some centres undefined) [AANAT bisubstrate analog, 4]"
  assayed_system: "Serotonin N-acetyltransferase (Ovis aries) (UniProt Q29495)"
  Ki / nM: 360
- compound: "CC(C)(COP(=O)(O)OP(=O)(O)OC[C@H]1OC(n2cnc3c(N)ncnc32)[C@@H](O)[C@@H]1OP(=O)(O)O)[C@@H](O)C(=O)NCCC(=O)NCCSCCCc1c[nH]c2ccccc12 (some centres undefined) [AANAT bisubstrate analog, 6]"
  assayed_system: "Serotonin N-acetyltransferase (Ovis aries) (UniProt Q29495)"
  Ki / nM: 840
- compound: "CC(C)(COP(=O)(O)OP(=O)(O)OC[C@H]1OC(n2cnc3c(N)ncnc32)[C@@H](O)[C@@H]1OP(=O)(O)O)[C@@H](O)C(=O)NCCC(=O)NCCSCCCNCCc1c[nH]c2ccccc12 (some centres undefined) [AANAT bisubstrate analog, 7]"
  assayed_system: "Serotonin N-acetyltransferase (Ovis aries) (UniProt Q29495)"
  Ki / nM: 5840
